# measured_on: purified cytoplasmic domain PDGFR-b protein (PDGFRβ) (Homo sapiens (Human), UniProt P09619)
# Sequence (P09619 554-1106): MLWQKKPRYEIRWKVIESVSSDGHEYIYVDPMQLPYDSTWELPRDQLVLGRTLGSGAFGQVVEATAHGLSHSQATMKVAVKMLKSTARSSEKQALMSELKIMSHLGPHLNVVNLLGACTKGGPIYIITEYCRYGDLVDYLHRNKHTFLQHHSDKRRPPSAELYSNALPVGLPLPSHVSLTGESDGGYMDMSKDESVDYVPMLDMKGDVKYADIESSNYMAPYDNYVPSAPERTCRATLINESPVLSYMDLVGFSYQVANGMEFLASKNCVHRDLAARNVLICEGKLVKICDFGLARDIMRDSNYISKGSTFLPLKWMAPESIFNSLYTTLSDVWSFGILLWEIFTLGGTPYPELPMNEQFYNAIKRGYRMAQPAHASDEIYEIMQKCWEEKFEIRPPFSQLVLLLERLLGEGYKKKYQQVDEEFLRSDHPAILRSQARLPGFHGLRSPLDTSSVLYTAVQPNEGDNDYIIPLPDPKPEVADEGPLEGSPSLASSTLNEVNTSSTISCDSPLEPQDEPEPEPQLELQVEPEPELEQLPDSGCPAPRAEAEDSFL
In plain terms, low IC50, meaning strictly below 60 nM, gives met, and everything else gives not met.

NC(=O)n1c(-c2ccc(NC(=O)Nc3cc(C(F)(F)F)ccc3F)cc2)cc2ccccc21; met
NC(=O)n1c(-c2ccc(NC(=O)Nc3ccccc3)cc2)cc2ccccc21; met
NC(=O)n1c(-c2cc(NC(=O)Nc3ccc(Cl)c(C(F)(F)F)c3)cs2)cc2ccccc21; not met
NC(=O)n1c(-c2ccc(NC(=O)Nc3cccc(C(F)(F)F)c3)cc2)cc2ccccc21; met
NC(=O)n1c(-c2cccc(NC(=O)Nc3ccc(F)c(Cl)c3)c2)cc2ccccc21; not met

query: Given `NC(=O)n1c(-c2cc(NC(=O)Nc3ccc(F)c(Cl)c3)cs2)cc2ccccc21` , is recorded IC50 strictly lower than 60 nM?
result: not met

query: Given `COC(=O)c1ccc2cc(-c3ccc(NC(=O)Nc4cccc(C)c4)cc3)n(C(N)=O)c2c1` , is recorded IC50 strictly lower than 60 nM?
result: met

query: Given `NC(=O)n1c(-c2cc(NC(=O)Nc3cccc(C(F)(F)F)c3)cs2)cc2ccccc21` , is recorded IC50 strictly lower than 60 nM?
result: not met

Entry source: patent US9353093B2
